Measured -TdeltaS by item
Organism: Homo sapiens
assay.text: Binding affinity to wild type TTR/Amyloid beta (1 to 40 residues) binary complex (unknown origin) assessed as change in entropy for binary complex by isothermal titration calorimetry
quantity.kind: -TdeltaS (kcal/mol)

{"columns": ["molecule", "quantity.kind", "data.value"],
 "data": [
  ["O=C(O)c1ccccc1Nc1cccc(C(F)(F)F)c1", "-TdeltaS", 4.62],
  ["CC1=C(CC(=O)O)c2cc(F)ccc2/C1=C\\c1ccc([S+](C)[O-])cc1 (stereo not given)", "-TdeltaS", -4.92],
  ["O=C(O)c1cc(-c2ccc(F)cc2F)cc(I)c1O", "-TdeltaS", -6.13],
  ["O=c1cc(-c2ccc(O)c(O)c2)oc2cc(O)cc(O)c12", "-TdeltaS", 7.3],
  ["O=C(O)c1cc(/N=N/c2ccc(O)c(C(=O)O)c2)ccc1O", "-TdeltaS", 0.02]
]}
